target: pooled human IgG (human IgG1, 2, 3 and 4)
In this section we review reported Enzyme Activity Endpoint Assay (purified): Fc values for a set of proteins.
Report as a plain number; the unit ng/µL is understood.

protein	quantity.unit	result.value
PRT-437 (protein) MSQTEDSESLQRLRDIEDFQAEKKKQNVVYTKWLDGVDVKDHDFRKIVDGNEAYYATPLLNGRGFYDINKDFNRDSDKCAAAVAANMFHYWLDRNRDNVDRFLRQNPEKHGIIELPDGQLKLSDFLNTYESDDGYRDKSKLFDFISNNFNGPVWTDKLLDNYINGYAYNYKYGRTIEDPTKNTSKINFFKEVFNEKILTNNHSIRNQNEFSVLLSEALYTGKAIGLSYGPAGLRHSLGHIISVWGADLDADGNVVAIYVTDSDDKKLTIGDERVGLKRYKISTDDEGRLRLTAYEETHNTGGQIRGLWTLDTGKQAWADYFDKTEQTGTDQAEQ	ng/µL	306

Moving on to another protein below.
Give its Enzyme Activity Endpoint Assay (purified): Fc value. Item: PRT-585 (protein) MANQEIRYSKATPSTITSVWTKGVTPPEQFIYNEDVLHAPYIANQGWYDITKTFNGKDDLLCGAATAGNMLHWWFDQNKEQIERYLKKHPEKQKINFNGEQMFDVKEAIDTKDSQTNSKLFEYFKDKAFPYLSTKHLGVFPDHVIDMFINGYRLSLTNHGPTPVKEQTKDPRGGIFDAVFTRGDQSKLLTSRHDFKEKTLNEISDLIKQELTEGKALGLSHTYANVRINHVINLWGADFNAEGNLEAIYVTDSDSNASIGMKKYYVGVNSAGKVAISAKEIEGDNIGAQVLGLFTLSTGQDIWEQTNLEHHHHHH
303
